Hello, the source for this data is PubChem BioAssay (NCATS), in case you need it.

# Tested on: CP238
# test_name: qHTS profiling for inhibitors of Plasmodium falciparum proliferation (AID 504749); further: nearly all actives have a fitted effect of over 60% in size
# stated_conditions: P. falciparum in erythrocytes, SYBR Green DNA, 72 h; series mostly up to 28.7 µM
Results filed as inconclusive are left out. Calls of active or inactive are those of the source. The call rests on the fitted dose curve; in most records, active means well fitted inhibition curve with a large enough effect; inconclusive means small, poorly fitted or top-dose-only effect; inactive means flat fitted curve, though single readings scatter.
Hi! Could you answer with just one of these? t (active), f (inactive)

(Q) Look up the recorded call for C=C1CCC2[C@](C)(CO)C(O)CC[C@]2(C)C1C/C=C1/C(=O)OCC1O (some centres undefined) in this test.
(A) f

(Q) Look up the recorded call for C[C@@H]1[C@H](O)[C@@H](C)/C=C/C=C/C=C/C=C/C=C/C=C/C=C/[C@H](O[C@@H]2O[C@H](C)[C@@H](O)[C@H](N)[C@@H]2O)C[C@@H]2O[C@](O)(C[C@@H](O)C[C@@H](O)[C@H](O)CC[C@@H](O)C[C@@H](O)CC(=O)O[C@H]1C)C[C@H](O)[C@H]2C(=O)O in this test.
(A) f

(Q) Look up the recorded call for CN=C(N)NCCCC(N)C(=O)O (centres undefined) in this test.
(A) f

(Q) Look up the recorded call for CN1C[C@H](C(=O)N[C@]2(C)O[C@@]3(O)C4CCCN4C(=O)[C@H](Cc4ccccc4)N3C2=O)C[C@@H]2c3cccc4[nH]cc(c34)C[C@H]21 (some centres undefined) in this test.
(A) t

---

# test_name: AP1 Signaling Pathway (AID 357);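 further: ME-180 reporter cells stimulated with EGF at its EC50 level; on the % scale 0 is the no-effect control and ±100 the full control effect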
# stated_conditions: ME-180 (cervical carcinoma) AP-1-bla reporter, EGF-induced, beta-lactamase ratio, 5 h; at 7.69 µM (top of the series) unless noted
Records with an inconclusive call do not appear. Active and inactive are the calls of the source. Calls follow the shape of the dose curve; as a rule, active = well fitted curve in either direction with a large enough effect (not every such curve was filed as active); inconclusive = small, poorly fitted or top-dose-only effect, or another doubt; inactive = flat fitted curve, though single readings scatter.
Would you kindly list activity change, negative = inhibition for each of these compounds?

(Q) // lookup activity change, negative = inhibition for COCCNc1ncnc2ccc(-c3ccoc3)cc12
(A) -23.8% (inactive)

(Q) // lookup activity change, negative = inhibition for Cc1cnc(CNc2ncncc2-c2ccccc2C#N)cn1
(A) 8.99% (inactive)

(Q) // lookup activity change, negative = inhibition for COc1ccc(Oc2ncc3nc(C)c(=O)n(C[C@H]4CCCO4)c3n2)cc1
(A) -5.04% (inactive)

(Q) // lookup activity change, negative = inhibition for CS(=O)(=O)N1CCC2(CCCN(c3ccncc3)C2)CC1
(A) 10.1% (inactive)

(Q) // lookup activity change, negative = inhibition for Cc1nc2cnc(N3CCN(C)CC3)nc2n(C)c1=O
(A) 2.98% (inactive)

(Q) // lookup activity change, negative = inhibition for O=C(c1cnccn1)N1CCC2(CCCN(c3ccccc3)C2)CC1
(A) 13.8% (inactive)

(Q) // lookup activity change, negative = inhibition for O=C(Nc1cccc(F)c1)N1CC[C@@]2(CCCN(C(=O)c3ccco3)C2)C1
(A) 1.78% (inactive)

(Q) // lookup activity change, negative = inhibition for O=C(c1cccc(F)c1)N1CCC2(CCCN(c3ncccn3)C2)CC1
(A) 4.38% (inactive)

(Q) // lookup activity change, negative = inhibition for COCCn1c(=O)c(-c2ccc(F)cc2)nc2cnc(N3CCOCC3)nc21
(A) -9.35% (inactive)

(Q) // lookup activity change, negative = inhibition for c1cncc(CNc2cc(-c3ccc4c(c3)OCO4)ncn2)c1
(A) -7.3% (inactive)

(Q) // lookup activity change, negative = inhibition for COc1ccc(-n2c(=O)c(-c3cn(C)c4ccccc34)nc3cnc(N4CCOCC4)nc32)cc1
(A) 11.1% (inactive)

(Q) // lookup activity change, negative = inhibition for c1nc(NC2CCNCC2)c2cc(-c3ccc4c(c3)OCO4)ccc2n1
(A) 7.44% (inactive)

(Q) // lookup activity change, negative = inhibition for COc1ccc(NC(=O)N2CC3(CCN(S(C)(=O)=O)CC3)C2)cc1
(A) -11.2% (inactive)

(Q) // lookup activity change, negative = inhibition for COc1ccc(-n2c(=O)c(C)nc3cnc(N4CCNCC4)nc32)cc1
(A) -6.88% (inactive)

(Q) // lookup activity change, negative = inhibition for O=C(c1ccco1)N1CCC2(CC1)CN(c1ccc(-c3ccccc3)cc1)C2
(A) -23.8% (inactive)

(Q) // lookup activity change, negative = inhibition for CS(=O)(=O)N1CCC[C@@]2(CCN(C(=O)Nc3cccc(F)c3)C2)C1
(A) -7.6% (inactive)
